Reference for the values: patent EP3020822A1

biological target: T1, human TLR3 extracellular domain (ECD) (human, UniProt O15455 24-703); test: Biacore (data not shown)
T1 construct: amino acids 1-703 of human TLR3; the structural model covers residues 30-687; also called huTLR3 ECD; TLR3 ECD
pKd: −log10 of the molar value.
Measured endpoint: pKd

Kindly note the recorded pKd for mAb 7 (antibody, human IgG4 S228P, V domains shown, human IgG4 with S229P; also called candidate 7; Fab 7) VH: QVELQQSGPGLVKPSQTLSLTCAISGDSVSTRSAAWGWIRQSPGRGLEWLGRIYMRSKWYNDYAVSVKSRITINPDTSKNQFSLQLNSVTPEDTAVYYCARHTYPYLSFDVWGQGTLVTVSS VL: DIELTQPPSVSVAPGQTARISCSGDALGGYFVSWYQQKPGQAPVLVIYDDDNRPSGIPERFSGSNSGNTATLTISGTQAEDEADYYCSSYDSDSLTVFGGGTKLTVL , which is > 8.00

Kindly note the recorded pKd for mAb 8 (antibody, human IgG4 S228P, V domains shown, human IgG4 with S229P; also called candidate 8; Fab 8) VH: QVELQQSGPGLVKPSQTLSLTCAISGDSVSSNSAAWGWIRQSPGRGLEWLGIIQTRSKWYNDYAVSVKSRITINPDTSKNQFSLQLNSVTPEDTAVYYCARYSYPFYSIDYWGQGTLVTVSS VL: DIELTQPPSVSVAPGQTARISCSGDNIGSYYVHWYQQKPGQAPVLVIYEDSERPSGIPERFSGSNSGNTATLTISGTQAEDEADYYCQSYDSQFSFGVFGGGTKLTVL , which is > 8.00

Kindly note the recorded pKd for mAb 19 (antibody, human IgG4 S228P, V domains shown, human IgG4 with S229P; also called candidate 19; Fab 19) VH: QVELVQSGAEVKKPGESLKISCKGSGYSFTNYWVGWVRQMPGKGLEWMGFIDPSDSYTNYAPSFQGQVTISADKSISTAYLQWSSLKASDTAMYYCARELYQGYMDTFDSWGQGTLVTVSS VL: DIQMTQSPSSLSASVGDRVTITCRASQSIGLYLAWYQQKPGKAPKLLIYAASSLQSGVPSRFSGSGSGTDFTLTISSLQPEDFATYYCQQYGSVSITFGQGTKVEIK , which is > 8.00

Kindly note the recorded pKd for mAb 18 (antibody, human IgG4 S228P, V domains shown, human IgG4 with S229P; also called candidate 18; Fab 18) VH: QVELQQSGPGLVKPSQTLSLTCAISGDSVSSNSAAWGWIRQSPGRGLEWLGIIQKRSKWYNNYAVSVKSRITINPDTSKNQFSLQLNSVTPEDTAVYYCARYSYPFYSIDYWGQGTLVTVSS VL: DIELTQPPSVSVAPGQTARISCSGDNIGSYYVHWYQQKPGQAPVLVIYEDSERPSGIPERFSGSNSGNTATLTISGTQAEDEADYYCQSYDSQFSFGVFGGGTKLTVL , which is > 8.00
